- Tested on: Staphylococcus sp.
- protocol: In vitro antibacterial evaluation: minimum inhibitory concentration (MIC), broth dilution method
- Type: cell-based
- protocol.conditions: strain GC 4547; broth dilution, 18 hours at 35° C.
metric.name: MIC Coagulase Negative Staphylococcus (GC 4547) (µg/mL)
Use µg/mL as the unit, but write only the number.

The recorded MIC Coagulase Negative Staphylococcus (GC 4547) for CC(c1ccccc1)C1NC(=O)CNC(=O)C(CO)NC(=O)C(C(O)C2CNC(=N)N2C2OC(CO)C(O)C(O)C2O)NC(=O)C(C(O)C2CNC(=N)N2)NC(=O)C(Cc2ccc(OC3OC(CO)C(OC4OC(COC(=O)CCC5CCCC5)C(O)C(O)C4O)C(O)C3O)cc2)NC1=O (stereo not shown) [Example 100c] is 1

The recorded MIC Coagulase Negative Staphylococcus (GC 4547) for COC1CCC2(C)C(CCC3C2CCC2(C)C(C(C)CCC4OCC5OC(OC6C(CO)OC(Oc7ccc(CC8NC(=O)C(C(C)c9ccccc9)NC(=O)CNC(=O)C(CO)NC(=O)C(C(O)C9CNC(=N)N9C9OC(CO)C(O)C(O)C9O)NC(=O)C(C(O)C9CNC(=N)N9)NC8=O)cc7)C(O)C6O)C(O)C(O)C5O4)CCC32)C1 (stereo not shown) is 32

The recorded MIC Coagulase Negative Staphylococcus (GC 4547) for COc1cc(OC)cc(C2OCC3OC(OC4C(CO)OC(Oc5ccc(CC6NC(=O)C(C(C)c7ccccc7)NC(=O)CNC(=O)C(CO)NC(=O)C(C(O)C7CNC(=N)N7C7OC(CO)C(O)C(O)C7O)NC(=O)C(C(O)C7CNC(=N)N7)NC6=O)cc5)C(O)C4O)C(O)C(O)C3O2)c1 (stereo not shown) is 2

====

- Tested on: Staphylococcus sp.
- protocol: In vitro antibacterial evaluation: minimum inhibitory concentration (MIC), broth dilution method
- Assay type: cell-based
- protocol.conditions: Coagulase Negative Staphylococcus (GC 4547); 18 hours at 35° C.
Provide the reported MIC Coagulase Negative Staphylococcus (GC 4547) of each item.
Respond with the figure and its unit, in that order.

Value (MIC Coagulase Negative Staphylococcus (GC 4547), Staphylococcus sp.) for record CC(C)CC(=O)OCC1OC(OC2C(CO)OC(Oc3ccc(CC4NC(=O)C(Cc5ccccc5)NC(=O)CNC(=O)C(CO)NC(=O)C(C(O)C5CNC(=N)N5C5OC(CO)C(O)C(O)C5O)NC(=O)C(C(O)C5CNC(=N)N5)NC4=O)cc3)C(O)C2O)C(O)C(O)C1O (stereo not shown) [Example 283c] = 16 µg/mL

Value (MIC Coagulase Negative Staphylococcus (GC 4547), Staphylococcus sp.) for record COc1ccc(COC2C(CO)OC(OC3C(CO)OC(Oc4ccc(CC5NC(=O)C(C(C)c6ccccc6)NC(=O)CNC(=O)C(CO)NC(=O)C(C(O)C6CNC(=N)N6C6OC(CO)C(O)C(O)C6O)NC(=O)C(C(O)C6CNC(=N)N6)NC5=O)cc4)C(O)C3O)C(O)C2O)cc1OCc1ccccc1 (stereo not shown) [Example 239a] = 2 µg/mL

Value (MIC Coagulase Negative Staphylococcus (GC 4547), Staphylococcus sp.) for record CC(c1ccccc1)C1NC(=O)CNC(=O)C(CO)NC(=O)C(C(O)C2CNC(=N)N2C2OC(CO)C(O)C(O)C2O)NC(=O)C(C(O)C2CNC(=N)N2)NC(=O)C(Cc2ccc(OC3OC(CO)C(OC4OC(COCc5ccc(Oc6ccccc6)cc5)C(O)C(O)C4O)C(O)C3O)cc2)NC1=O (stereo not shown) = 2 µg/mL

Value (MIC Coagulase Negative Staphylococcus (GC 4547), Staphylococcus sp.) for record CC(c1ccccc1)C1NC(=O)CNC(=O)C(CO)NC(=O)C(C(O)C2CNC(=N)N2C2OC(CO)C(O)C(O)C2O)NC(=O)C(C(O)C2CNC(=N)N2)NC(=O)C(Cc2ccc(OC3OC(CO)C(OC4OC(CO)C(OCC=C(c5ccccc5)c5ccccc5)C(O)C4O)C(O)C3O)cc2)NC1=O (stereo not shown) [Example 241a] = 4 µg/mL
